Tested on: DU-145
EXPERIMENT: Cytotoxicity against human DU145 cells after 3 days by SRB assay
Format: functional, cell-based
PARTICULARS: du-145
READOUT KIND: EC50

Record excerpt, results attached:
ITEM SMILES | READOUT KIND | REPORTED MEASUREMENT
COc1cc(OC)c(OC)cc1/C=C/C(=O)c1cc(C(C)=O)c(O)cc1O | EC50 | Not Active
Cc1ccc(/C=C/C(=O)c2cc(C(=O)/C=C/c3ccc(C)o3)c(O)cc2O)o1 | EC50 | Not Active
COc1ccc(/C=C/C(=O)c2cc(C(=O)/C=C/c3ccc(OC)c(OC)c3OC)c(O)cc2O)c(OC)c1OC | EC50 | Not Active
Cc1ccsc1/C=C/C(=O)c1cc(C(=O)/C=C/c2sccc2C)c(O)cc1O | EC50 | Not Active
O=C(/C=C/c1ccco1)c1cc(C(=O)/C=C/c2ccco2)c(O)cc1O | EC50 | Not Active

Okay, now this molecule:
Dear colleague, I am looking for the recorded EC50 of the following molecule: "CC(=O)c1cc(C(=O)/C=C/C=C/c2ccccc2)c(O)cc1O" Not Active

###

Tested on: KB
EXPERIMENT: Cytotoxicity against human KB cells after 3 days by SRB assay
Format: functional, cell-based
PARTICULARS: Homo sapiens, KB, 72 h; read-out: EC50
READOUT KIND: pEC50
Give bare numbers, as −log10 of the molar value.

Consider the following illustrative entries.
ITEM SMILES | MEASURED TARGET | REPORTED MEASUREMENT
O=C(/C=C/c1ccccc1)c1cc(C(=O)/C=C/c2ccccc2)c(O)cc1O | KB | 5.79
COc1cccc(/C=C/C(=O)c2cc(C(=O)/C=C/c3cccc(OC)c3)c(O)cc2O)c1 | KB | 5.54
COc1ccc(OC)c(/C=C/C(=O)c2cc(C(=O)/C=C/c3cc(OC)ccc3OC)c(O)cc2O)c1 | KB | 4.40
COc1ccc(/C=C/C(=O)c2cc(C(=O)/C=C/c3ccc(OC)c(OC)c3)c(O)cc2O)cc1OC | KB | 5.09
CC(=O)c1cc(C(=O)/C=C/c2ccc3c(c2)OCO3)c(O)cc1O | KB | 4.76
COc1cccc(/C=C/C(=O)c2cc(C(=O)/C=C/c3cccc(OC)c3OC)c(O)cc2O)c1OC | KB | 5.69

Need pEC50, item "O=C(/C=C/c1ccccn1)c1cc(C(=O)/C=C/c2ccccn2)c(O)cc1O" 5.53

###

Field: pEC50. Provide a value for each of the molecules that follow.
Test system: DU-145
EXPERIMENT: Cytotoxicity against human DU145 cells after 3 days by SRB assay
Type: functional, cell-based
PARTICULARS: Homo sapiens, DU-145, 72 h; read-out: EC50
Give bare numbers, as −log10 of the molar value.

Worked cases, pEC50 given:
ITEM SMILES | REPORTED MEASUREMENT
CC(=O)c1cc(C(=O)/C=C/c2ccc3c(c2)OCO3)c(O)cc1O | 4.79
COc1cccc(/C=C/C(=O)c2cc(C(=O)/C=C/c3cccc(OC)c3)c(O)cc2O)c1 | 5.73

Provide pEC50 for all items below, preserving their order.
1. O=C(/C=C/c1ccccc1)c1cc(C(=O)/C=C/c2ccccc2)c(O)cc1O
2. COc1ccc(/C=C/C(=O)c2cc(C(=O)/C=C/c3ccc(OC)c(OC)c3)c(O)cc2O)cc1OC
3. O=C(/C=C/c1ccccn1)c1cc(C(=O)/C=C/c2ccccn2)c(O)cc1O
4. COc1cccc(/C=C/C(=O)c2cc(C(=O)/C=C/c3cccc(OC)c3OC)c(O)cc2O)c1OC

1: 5.77; 2: 5.06; 3: 5.55; 4: 5.61
